Where do the numbers come from? From patent US4588525A.

- Test system: human lung fibroblasts
- Assay Overview: Inhibition of growth of human lung fibroblasts in culture
- Type: cell-based
- Assay Setup: Homo sapiens, Fibroblast; growth inhibition 50%; usually 3-4 days; 10^4 cells/35 mm dish; Coulter counter; read-out: ID50 (the source's name)
A collection of compounds and their measured pIC50
# reply with the number alone; pIC50 is -log10 of concentration in mol/L

>>> numeric_value("CCOC(=O)CCCCC(=O)Nc1ccc(C(N)=O)cn1")
4.52
>>> numeric_value("NC(=O)c1ccc(N)nc1 [6-Aminonicotinamide, 6-aminonicotinamide]")
5.70
>>> numeric_value("CCCCOC(=O)CCC(=O)Nc1ccc(C(N)=O)cn1")
4.70
>>> numeric_value("CCOC(=O)CCC(=O)Nc1ccc(C(N)=O)cn1")
5.30
>>> numeric_value("CCCCCCC(=O)Nc1ccc(C(N)=O)cn1 [N^6 --heptanoyl-6-aminonicotinamide]")
4.70
>>> numeric_value("CCCCCCOC(=O)CCC(=O)Nc1ccc(C(N)=O)cn1")
4.70
>>> numeric_value("COC(=O)CCC(=O)Nc1ccc(C(N)=O)cn1")
4.70

So what does the record say about pIC50 for NC(=O)c1ccc(NC(=O)CCC(=O)O)nc1 [6-Aminonicotinamide-N^6 --succinic acid, 6-aminonicotinamide-N^6-succinic acid] ?
2.70
